tested on: Candida tropicalis; assay: Antifungal activity against Candida tropicalis assessed as reduction in fungal cell growth incubated for 48 hrs by broth microdilution method; type: functional
Field: MIC. Provide a value for each of the molecules that follow.

Input: Give MIC (Candida tropicalis) of the following molecule: OC(Cn1cncn1)(Cn1nnnc1CCN1CCN(c2c(Cl)cccc2Cl)CC1)c1ccc(F)cc1F (configuration not stated)
Output: 0.5 to 16 µg/mL

Input: Let us now turn to COc1ccccc1N1CCN(CCc2nnnn2C(C)C(O)(Cn2cncn2)c2ccc(F)cc2F)CC1 (configuration not stated)
Output: 0.5 to 16 µg/mL

Input: Let us now turn to C[C@H](n1nnc(CCN2CCN(c3cccc(Cl)c3)CC2)n1)[C@](O)(Cn1cncn1)c1ccc(F)cc1F
Output: 0.25 to 16 µg/mL

Input: Let us now turn to OC(Cn1cncn1)(Cn1nnnc1CCN1CCN(C(c2ccccc2)c2ccccc2)CC1)c1ccc(F)cc1F (configuration not stated)
Output: 0.5 to 16 µg/mL

Input: Let us now turn to COc1ccccc1N1CCN(CCc2nnn(CC(O)(Cn3cncn3)c3ccc(F)cc3F)n2)CC1 (configuration not stated)
Output: 1 to 16 µg/mL

Input: Let us now turn to C[C@H](n1nnnc1CCN1CCN(Cc2ccccc2)CC1)[C@](O)(Cn1cncn1)c1ccc(F)cc1F
Output: 0.12 to 16 µg/mL

Input: Let us now turn to C[C@H](n1nnnc1CCN1CCN(c2ccc(Cl)cc2)CC1)[C@](O)(Cn1cncn1)c1ccc(F)cc1F
Output: 0.12 to 16 µg/mL

Input: Let us now turn to O=[N+]([O-])c1ccc(N2CCN(CCc3nnnn3CC(O)(Cn3cncn3)c3ccc(F)cc3F)CC2)cc1 (configuration not stated)
Output: 0.5 to 16 µg/mL

Input: Let us now turn to CC(n1nnc(CCN2CCN(c3ccc(Cl)cc3)CC2)n1)C(O)(Cn1cncn1)c1ccc(F)cc1F (configuration not stated)
Output: 1 to 16 µg/mL

Input: Let us now turn to CCCCOc1ccccc1N1CCN(CCc2nnnn2C(C)C(O)(Cn2cncn2)c2ccc(F)cc2F)CC1 (configuration not stated)
Output: 0.5 to 16 µg/mL

Input: Let us now turn to CC(n1nnc(CCN2CCN(c3cccc(Cl)c3)CC2)n1)C(O)(Cn1cncn1)c1ccc(F)cc1F (configuration not stated)
Output: 1 to 16 µg/mL

Input: Let us now turn to C[C@H](n1nnnc1CCN1CCN(c2cccc(C(F)(F)F)c2)CC1)[C@](O)(Cn1cncn1)c1ccc(F)cc1F
Output: 0.12 to 1 µg/mL

Input: Let us now turn to CC(n1nnc(CCN2CCN(c3cccc(C(F)(F)F)c3)CC2)n1)C(O)(Cn1cncn1)c1ccc(F)cc1F (configuration not stated)
Output: 1 to 16 µg/mL

Input: Let us now turn to OC(Cn1cncn1)(Cn1nnc(CCN2CCN(c3c(Cl)cccc3Cl)CC2)n1)c1ccc(F)cc1F (configuration not stated)
Output: 1 to 16 µg/mL

Input: Let us now turn to C[C@H](n1nnc(CCN2CCN(c3ccc([N+](=O)[O-])cc3)CC2)n1)[C@](O)(Cn1cncn1)c1ccc(F)cc1F
Output: 0.25 to 16 µg/mL

Input: Let us now turn to C[C@H](n1nnnc1CCN1CCN(c2ccc([N+](=O)[O-])cc2)CC1)[C@](O)(Cn1cncn1)c1ccc(F)cc1F
Output: 0.12 to 16 µg/mL

Input: Let us now turn to COc1ccccc1N1CCN(CCc2nnn([C@@H](C)[C@](O)(Cn3cncn3)c3ccc(F)cc3F)n2)CC1
Output: 0.25 to 16 µg/mL

Data provenance: ChEMBL document CHEMBL4393657
